Provide the recorded MIC for the entries that follow.
System: Escherichia coli
assay summary: Antibacterial activity against tolC-deficient Escherichia coli NB27005-CDY0039 expressing gyrA S83L […], parC S80I mutant by broth microdilution method
Format: functional

// below: answered compounds
O=C(O)c1cn(C2CC2)c2cc(N3CCN(CCOCCOCCOCCOCCOCCN4CCN(c5cc6c(cc5F)c(=O)c(C(=O)O)cn6C5CC5)CC4)CC3)c(F)cc2c1=O
> 32 mg/L
O=C(CN1CCN(c2cc3c(cc2F)c(=O)c(C(=O)O)cn3C2CC2)CC1)NCCOCCOCCNC(=O)CN1CCN(c2cc3c(cc2F)c(=O)c(C(=O)O)cn3C2CC2)CC1
> 32 mg/L

Ask | What does the data say about its MIC? Entry: "C=CCCC(=O)N1CCN(c2cc3c(cc2F)c(=O)c(C(=O)O)cn3C2CC2)CC1"
Reply | 2 mg/L

====

Provide the recorded MIC for the entries that follow.
Tested on: Pseudomonas aeruginosa
assay summary: Antibacterial activity against mexX, mexB deficient Pseudomonas aeruginosa NB52023-CDK005 harboring gyrAT83I by broth microdilution method
Format: functional

// below: answered compounds
O=C(CCN1CCN(c2cc3c(cc2F)c(=O)c(C(=O)O)cn3C2CC2)CC1)NCCOCCOCCNC(=O)CCN1CCN(c2cc3c(cc2F)c(=O)c(C(=O)O)cn3C2CC2)CC1
> 32 µg/mL
O=C(O)c1cn(C2CC2)c2cc(N3CCN(CCOCCOCCOCCOCCOCCOCCOCCN4CCN(c5cc6c(cc5F)c(=O)c(C(=O)O)cn6C5CC5)CC4)CC3)c(F)cc2c1=O
> 32 µg/mL

Ask | What does the data say about its MIC? Entry: "O=C(NCCCCC(=O)N1CCN(c2cc3c(cc2F)c(=O)c(C(=O)O)cn3C2CC2)CC1)c1cccc(C(=O)NCCCCC(=O)N2CCN(c3cc4c(cc3F)c(=O)c(C(=O)O)cn4C3CC3)CC2)c1"
Reply | > 32 µg/mL

====

System: Escherichia coli
assay summary: Antibacterial activity against tolC-deficient Escherichia coli JW5503-1 by broth microdilution method
Type: functional
Provide the recorded MIC for the entries that follow.

Required: MIC, one value per compound below.
1. Cc1cc(C(=O)N2CCN(c3cc4c(cc3F)c(=O)c(C(=O)O)cn4C3CC3)CC2)cc(C(=O)N2CCN(c3cc4c(cc3F)c(=O)c(C(=O)O)cn4C3CC3)CC2)c1
2. O=C(O)c1cn(C2CC2)c2cc(N3CCN(CCOCCOCCOc4ccc5ccc(=O)oc5c4)CC3)c(F)cc2c1=O
3. O=CN1CCN(c2cc3c(cc2F)c(=O)c(C(=O)O)cn3C2CC2)CC1

Reply |
≤ 0.03 µg/mL
≤ 0.03 µg/mL
≤ 0.03 µg/mL

====

Tested on: Pseudomonas aeruginosa
assay summary: Antibacterial activity against mexX, mexB deficient Pseudomonas aeruginosa NB52023-CDK006 harboring gyrAT83I and parC S87L by broth microdilution method
Assay type: functional
Provide the recorded MIC for the entries that follow.

// below: answered molecules
O=C(O)c1cn(C2CC2)c2cc(N3CCN(CCOCCOCCOCCOCCOCCOCCOCCN4CCN(c5cc6c(cc5F)c(=O)c(C(=O)O)cn6C5CC5)CC4)CC3)c(F)cc2c1=O
> 32 µg/mL
O=C(CCN1CCN(c2cc3c(cc2F)c(=O)c(C(=O)O)cn3C2CC2)CC1)NCCOCCNC(=O)CCN1CCN(c2cc3c(cc2F)c(=O)c(C(=O)O)cn3C2CC2)CC1
> 32 µg/mL
O=C(CN1CCN(c2cc3c(cc2F)c(=O)c(C(=O)O)cn3C2CC2)CC1)NCCCN1CCN(CCCNC(=O)CN2CCN(c3cc4c(cc3F)c(=O)c(C(=O)O)cn4C3CC3)CC2)CC1
> 32 µg/mL
O=C(O)c1cn(C2CC2)c2cc(N3CCN(C(=O)c4cccc(C(=O)N5CCN(c6cc7c(cc6F)c(=O)c(C(=O)O)cn7C6CC6)CC5)c4)CC3)c(F)cc2c1=O
> 32 µg/mL
CN(CC(=O)N1CCN(c2cc3c(cc2F)c(=O)c(C(=O)O)cn3C2CC2)CC1)CC(=O)N1CCN(c2cc3c(cc2F)c(=O)c(C(=O)O)cn3C2CC2)CC1
32 µg/mL

Required: MIC, one value per molecule below.
1. O=C(O)c1cn(C2CC2)c2cc(N3CCNCC3)c(F)cc2c1=O [CIPROFLOXACIN]
2. Cc1cc(C(=O)N2CCN(c3cc4c(cc3F)c(=O)c(C(=O)O)cn4C3CC3)CC2)cc(C(=O)N2CCN(c3cc4c(cc3F)c(=O)c(C(=O)O)cn4C3CC3)CC2)c1

Reply |
["4 µg/mL", "> 32 µg/mL"]
